TEST TARGET: HDAC8 (Homo sapiens, UniProt Q9BY41)
Sequence (Q9BY41 1-377): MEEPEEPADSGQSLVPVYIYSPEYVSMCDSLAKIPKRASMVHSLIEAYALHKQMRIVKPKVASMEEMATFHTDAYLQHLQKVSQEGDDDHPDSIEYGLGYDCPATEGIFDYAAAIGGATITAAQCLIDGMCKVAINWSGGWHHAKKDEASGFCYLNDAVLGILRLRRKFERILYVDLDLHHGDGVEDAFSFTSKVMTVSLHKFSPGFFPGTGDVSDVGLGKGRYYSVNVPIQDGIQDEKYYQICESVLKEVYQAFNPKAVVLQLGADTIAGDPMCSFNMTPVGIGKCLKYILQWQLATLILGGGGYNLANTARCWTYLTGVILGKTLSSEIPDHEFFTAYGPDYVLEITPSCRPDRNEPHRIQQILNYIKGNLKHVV
TEST PROTOCOL: HDAC biochemical assay of P5-P12 (Table P1)
Design: The recombinant, full-length HDAC protein (BPS Biosciences) was incubated; purchased BPS Biosciences
ASSAY SETUP: Table P1
MEASURED METRIC: IC50 (nM)
Numbers only here, please. The scale is nM.

For orientation, consider the following solved cases.
COMPOUND | TEST TARGET | IC50 [nM]
CC(C)[C@@H]1NC(=O)[C@]2(C)CSC(=N2)c2csc(n2)CNC(=O)C[C@@H](/C=C/CCS)NC1=O [Largazole peptide isostere thiol] | HDAC8 (Homo sapiens, UniProt Q9BY41) | 255
CC(C)[C@@H]1NC(=O)[C@]2(C)CSC(=N2)c2ccnc(c2)CNC(=O)C[C@@H](/C=C/CCS)OC1=O [Compound P8, Depsipeptide Pyridyl “OUT” Thiol] | HDAC8 (Homo sapiens, UniProt Q9BY41) | 102

Task item: Determine its reported IC50: CC(C)[C@@H]1NC(=O)[C@]2(C)CSC(=N2)c2ccnc(c2)CNC(=O)C[C@@H](/C=C/CCS)NC1=O [Compound P12, Peptide Isostere Pyridyl “OUT” Thiol]
Reply: 1490

Task item: Determine its reported IC50: CC(C)[C@@H]1NC(=O)[C@]2(C)CSC(=N2)c2cccc(n2)CNC(=O)C[C@@H](/C=C/CCS)OC1=O [Compound P6, Depsipeptide Pyridyl “IN” Thiol]
Reply: 341

Attribution: patent US10676504B2
